Taken from the supplement of paper PMC7156485.

# System: HCC1569
# Method: cell number relative to DMSO (% of DMSO); higher = more cells (less growth inhibition / toxicity)
# Run parameters: concentration: 10 µM; 24 h
Items are presented alongside their recorded cell number.
Simply state the number, no unit and no words.

compound=CN1C2CCCC1CC(=O)C2.Cl observed=98.6

## Input Kindly state the measured cell number obtained for Br.NCc1cc(=O)[nH]o1 [Muscimol hydrobromide] with HCC1569.
## Output 103

## Input Kindly state the measured cell number obtained for CN1CCC23CCCCC2C1Cc1ccc(O)cc13.O=C(O)C(O)C(O)C(=O)O [Dextrorphan D-tartrate] with HCC1569.
## Output 103

## Input Kindly state the measured cell number obtained for CC1OC(=O)C(C(C)C)NC(=O)C(C(C)C)OC(=O)C(C(C)C)NC(=O)C(C)OC(=O)C(C(C)C)NC(=O)C(C(C)C)OC(=O)C(C(C)C)NC(=O)C(C)OC(=O)C(C(C)C)NC(=O)C(C(C)C)OC(=O)C(C(C)C)NC1=O (stereo unspecified) with HCC1569.
## Output 65

###

# Tested on: TDF
# Method: H1.0 immunofluorescence intensity relative to DMSO (% of DMSO); higher = stronger H1.0 induction, active = 120 or more
# Run parameters: concentration: 10 µM; 24 h
Quantity kind: H1.0 immunofluorescence intensity
Simply state the number, no unit and no words.

Below, each entry is followed by its recorded H1.0 immunofluorescence intensity result.
molecule="Cc1cccc(C)c1NC1=NCCCS1.Cl [Xylazine hydrochloride]" quantity_kind="H1.0 immunofluorescence intensity" observed=99.9
molecule="CC(CCc1ccccc1)NC(C)C(O)c1ccc(O)cc1.Cl (centres undefined) [Buphenine.HCl]" quantity_kind="H1.0 immunofluorescence intensity" observed=90
molecule="CC(=O)C1=C(O)C2C3c4c[nH]c5cccc(c45)CC3C(C)(C)N2C1=O (centres undefined)" quantity_kind="H1.0 immunofluorescence intensity" observed=100
molecule=CCNC(=O)C[C@@H]1N=C(c2ccc(Cl)cc2)c2cc(OC)ccc2-n2c(C)nnc21 quantity_kind="H1.0 immunofluorescence intensity" observed=141
molecule="CC(C)CC1C(=O)N2CCCC2C2(O)OC(NC(=O)C3C=C4c5cccc6[nH]c(Br)c(c56)CC4N(C)C3)(C(C)C)C(=O)N12.CS(=O)(=O)O (centres undefined) [Bromocriptine mesylate]" quantity_kind="H1.0 immunofluorescence intensity" observed=94.1

## Input H1.0 immunofluorescence intensity for CN1CCC23CCCCC2C1Cc1ccc(O)cc13.O=C(O)C(O)C(O)C(=O)O [Dextrorphan D-tartrate] ?
## Output 93.1

## Input H1.0 immunofluorescence intensity for CC(C)(C)NCC(O)c1ccccc1Cl (centres undefined) ?
## Output 90.7

## Input H1.0 immunofluorescence intensity for C=CCN1CCC23c4c5ccc(O)c4OC2C(=O)CCC3(O)C1C5 (centres undefined) ?
## Output 99.5

## Input H1.0 immunofluorescence intensity for COc1cccc(C2(O)CCCCC2CN(C)C)c1 (centres undefined) ?
## Output 99.3

###

# Test system: TDF
# Method: H1.0 immunofluorescence intensity relative to DMSO (% of DMSO); higher = stronger H1.0 induction, active = 120 or more
# Run parameters: concentration: 10 µM; 24 h
Structures can show the parent of a compound that is named as a salt.
Please state which outcome applies, choosing from active, inactive

molecule=CCCn1c(C)c(C(=O)c2cccc3ccccc23)c2ccccc21 classification=inactive
molecule="C=CC1CN2CCC1CC2C(O)c1ccnc2ccccc12 (single isomer, unassigned; (-)) [(-)-Cinchonidine]" classification=inactive

## Input Please let me know the test result on file for S=C(NC1CCCCC1)N1CCC(c2cnc[nH]2)CC1 [Thioperamide maleate] .
## Output inactive

## Input Please let me know the test result on file for "CCCC(=O)OCC[N+](C)(C)C" .
## Output inactive

## Input Please let me know the test result on file for C[N+]1(C)CCc2cc3c(cc2C1C1OC(=O)c2c1ccc1c2OCO1)OCO3.[Br-] (single isomer, unassigned; (-)) [(-)-Bicuculline methbromide, 1(S), 9(R)] .
## Output inactive

## Input Please let me know the test result on file for NC(CP(=O)(O)O)C(=O)O (racemic) .
## Output inactive

## Input Please let me know the test result on file for CC=C1CN2CCC34C(=C(CC=O)C1CC23)Nc1ccccc14 (stereo not drawn) .
## Output inactive

## Input Please let me know the test result on file for NC(Cn1oc(=O)[nH]c1=O)C(=O)O (stereo not drawn) .
## Output inactive

## Input Please let me know the test result on file for COC(C(=O)C(O)C(C)O)C1Cc2cc3cc(OC4CC(OC5CC(O)C(OC)C(C)O5)C(OC(C)=O)C(C)O4)c(C)c(O)c3c(O)c2C(=O)C1OC1CC(OC2CC(OC3CC(C)(O)C(OC(C)=O)C(C)O3)C(O)C(C)O2)C(O)C(C)O1 (stereo not drawn) .
## Output active

## Input Please let me know the test result on file for COc1ccc(OC)c(C(O)C(C)N)c1.Cl (stereo not drawn) [Methoxamine hydrochloride] .
## Output inactive

## Input Please let me know the test result on file for CC(C)CC(NP(=O)([O-])OC1OC(C)C(O)C(O)C1O)C(=O)NC(Cc1c[nH]c2ccccc12)C(=O)[O-].[Na+].[Na+] (stereo not drawn) [Phosphoramidon disodium] .
## Output inactive

## Input Please let me know the test result on file for Cc1o[nH]c(=O)c1CC(N)C(=O)O (racemic) .
## Output inactive

## Input Please let me know the test result on file for "CP(=O)(O)CCCN.Cl" .
## Output inactive

## Input Please let me know the test result on file for Cl.NCCc1c[nH]c2ccc(O)cc12 [Serotonin hydrochloride] .
## Output inactive

## Input Please let me know the test result on file for "COc1cc(C=C(C#N)C#N)cc(O)c1O" .
## Output inactive

## Input Please let me know the test result on file for "COc1ccccc1CN[C@H]1C2CCN(CC2)[C@H]1C(c1ccccc1)c1ccccc1" .
## Output inactive

## Input Please let me know the test result on file for "CSC(=S)NCc1c[nH]c2ccccc12" .
## Output inactive

## Input Please let me know the test result on file for Clc1ccc(C2CC3CCC2N3)cn1 (racemic) .
## Output inactive

###

Items are presented alongside their recorded H1.0 immunofluorescence intensity.
# Tested on: HCC1569
# Method: H1.0 immunofluorescence intensity relative to DMSO (% of DMSO); higher = stronger H1.0 induction, active = 140 or more
# Run parameters: concentration: 10 µM; 24 h
Simply state the number, no unit and no words.

Below, each entry is followed by its recorded H1.0 immunofluorescence intensity result.
compound="COC1=CC(=O)OC(C=Cc2ccccc2)C1 (racemic)" observed=83
compound="CC(C)NCC(O)c1ccc(N)c(C#N)c1 (stereo not given)" observed=102
compound="CCN1CC2(COC)CCC(OC)C34C5CC6C(OC)CC7(OCOC7(C(O)C23)C14)C5C6OC (stereo not given)" observed=94.3
compound=CCCN(CCC)C1Cc2cc(OC)c(OC)cc2C1.O=C(O)C=CC(=O)O observed=102

## Input H1.0 immunofluorescence intensity for Cl.NNC(N)=O [Semicarbazide hydrochloride] ?
## Output 108

## Input H1.0 immunofluorescence intensity for CC1OC(C[N+](C)(C)C)CC1O.[Cl-] (racemic) ?
## Output 92

## Input H1.0 immunofluorescence intensity for NCCN(CCN)N(O)N=O [1,1-bis(2-aminoethyl)-2-hydroxy-3-oxotriazane] ?
## Output 95

## Input H1.0 immunofluorescence intensity for "CN1CCC(c2c[nH]c3ccc(O)cc23)CC1.O=C(O)C=CC(=O)O" ?
## Output 82.3

## Input H1.0 immunofluorescence intensity for COc1cc(C2c3cc4c(cc3C(O)C3COC(=O)C23)OCO4)cc(OC)c1O (stereo not given) ?
## Output 132

## Input H1.0 immunofluorescence intensity for CC(C)c1cc2c(c(O)c1O)C1(C(=O)O)CCCC(C)(C)C1CC2 (stereo not given) ?
## Output 103

## Input H1.0 immunofluorescence intensity for "O=C(O)CC[N+](=O)[O-]" ?
## Output 84.9

## Input H1.0 immunofluorescence intensity for COc1cc2c(cc1O)CCNC2C (stereo not given) ?
## Output 95.5

## Input H1.0 immunofluorescence intensity for CCCN1CCOC2c3cc(O)ccc3OCC21.Cl (racemic) ?
## Output 96.5

## Input H1.0 immunofluorescence intensity for CCC(CO)NC(=O)C1C=C2c3cccc4[nH]cc(c34)CC2N(C)C1.O=C(O)C=CC(=O)O (stereo not given) [Methylergonovine maleate] ?
## Output 92.3

## Input H1.0 immunofluorescence intensity for CC1CCC2C(C)C(=O)OC3OC4(C)CCC1C32OO4 (stereo not given) ?
## Output 116

## Input H1.0 immunofluorescence intensity for COc1cc2c3cc1Oc1c(OO)c(OC)cc4c1C(Cc1ccc(cc1)Oc1cc(ccc1O)CC3N(C)CC2)N(C)CC4.O=S(=O)(O)O (stereo not given) [Oxyacanthine sulfate] ?
## Output 148

## Input H1.0 immunofluorescence intensity for CCN1CC2(C)CCC(OC)C34C5CC6CCC(O)(C5C(=O)O6)C(C(O)C23)C14 (stereo not given) ?
## Output 88.3

## Input H1.0 immunofluorescence intensity for Cl.Clc1cc(I)cc(Cl)c1NC1=NCCN1 [p-Iodoclonidine hydrochloride] ?
## Output 85.2

## Input H1.0 immunofluorescence intensity for C=C(C)C1CNC(C(=O)O)C1CC(=O)O (stereo not given) ?
## Output 88.9
